Each record here notes measured shrunken log2 fold change.
# Tested on: Escherichia coli TOP10;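 note: peptides expressed intracellularly from a pBAD plasmid library in pooled LB shake-flask culture, induced with 0.3% L-arabinose, DNA abundance read by NGS, three biological replicates, DESeq2 with apeglm shrinkage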
# assayText: shrunken log2 fold change of peptide-encoding DNA abundance (4.5 h post-induction vs induction); higher = less antimicrobial activity (less host growth inhibition)
# conditionParameters: time post-induction: 4.5 h; library: site-saturation at positions 5, 18, 19, 20
Could you respond with only the numeric value?

Example results:
| sequenceInput | assayTarget | shrunken log2 fold change |
| --- | --- | --- |
| RRIRVRPPRLPRPRPRPMMCPRP | Escherichia coli TOP10 | -0.00174 |
| RRIRCRPPRLPRPRPRPVSMPRP | Escherichia coli TOP10 | -0.0967 |
| RRIRWRPPRLPRPRPRPESFPRP | Escherichia coli TOP10 | 0.528 |

State its shrunken log2 fold change: `RRIRRRPPRLPRPRPRPDLWPRP`
0.676

Write down shrunken log2 fold change measured for item `RRIRDRPPRLPRPRPRPDTCPRP`
0.00173

Output measured shrunken log2 fold change for this item: `RRIRSRPPRLPRPRPRPWQEPRP`
0.131

For the sequence `RRIRFRPPRLPRPRPRPTYQPRP` , give its measured shrunken log2 fold change value.
-0.393

Fill in reported shrunken log2 fold change for this entry: `RRIRFRPPRLPRPRPRPARRPRP`
0.435
